system: Human alphaherpesvirus 1; assay: Antiviral activity against herpes simplex virus type 1 (strain 377).; format: functional; settings: read-out: ID50 (the source's name)
Give measured IC50 for each item. Keep answers brief.
One number for each entry, in µM.

molecule	units label	IC50
Nc1ncnc2c1ncn2C1O[C@H](CCCO)[C@@H](O)[C@@H]1O (some centres undefined)	µM	643
Nc1ncnc2c1ncn2[C@@H]1O[C@H](CO)[C@@H](O)[C@H]1O [ADENOSINE]	µM	22
CCOC(=O)CC[C@H]1OC(n2cnc3c(N)ncnc32)[C@@H](O)[C@@H]1O (some centres undefined)	µM	729

query: Form field - read-out: IC50; system: Human alphaherpesvirus 1; submitted item: NC(=O)CC[C@H]1OC(n2cnc3c(N)ncnc32)[C@@H](O)[C@@H]1O (some centres undefined)
result: 574

* * *

system: Ara-A; assay: Compound was evaluated for antiviral activity expressed as ID50 for the inhibition of cellular DNA and protein synthesis in ara-A resistant cells; assay type: functional; settings: Homo sapiens; read-out: ID50 (the source's name)
parameter measured: pIC50
Give bare numbers, as −log10 of the molar value.

query: Which measured pIC50 value corresponds to Nc1ncnc2c1ncn2[C@@H]1O[C@H](CO)[C@@H](O)[C@H]1O ?
result: 3.62

* * *

assay: Compound was evaluated for antiviral activity of the compound, expressed as ID50 for the inhibition of cellular DNA and protein synthesis in wild-type cells; type: functional; settings: read-out: ID50 (the source's name)
parameter measured: pIC50
Numbers only, as −log10 of the molar value.

query: Which measured pIC50 value corresponds to Nc1ncnc2c1ncn2C1O[C@H](CCCO)[C@@H](O)[C@@H]1O (stereo partly specified) ?
result: 2.73

* * *

Give measured IC50 for each item. Keep answers brief.
tested on: Human alphaherpesvirus 1; test: Antiviral activity against herpes simplex virus type 1 (strain HF).; type: functional; settings: read-out: ID50 (the source's name)
Answers are plain numbers, in µM.

compound	units label	IC50
Nc1ncnc2c1ncn2C1O[C@H](CCCO)[C@@H](O)[C@@H]1O (some centres not stated)	µM	525

We next turn to a different compound, shown below.
query: Form field - read-out: IC50; system: Human alphaherpesvirus 1; submitted item: Nc1ncnc2c1ncn2[C@@H]1O[C@H](CO)[C@@H](O)[C@H]1O
result: 42
